- tested-target: ligand binding domain (LBD) of recombinant human FXR (Homo sapiens (Human))
- Sequence (Q96RI1 254-486): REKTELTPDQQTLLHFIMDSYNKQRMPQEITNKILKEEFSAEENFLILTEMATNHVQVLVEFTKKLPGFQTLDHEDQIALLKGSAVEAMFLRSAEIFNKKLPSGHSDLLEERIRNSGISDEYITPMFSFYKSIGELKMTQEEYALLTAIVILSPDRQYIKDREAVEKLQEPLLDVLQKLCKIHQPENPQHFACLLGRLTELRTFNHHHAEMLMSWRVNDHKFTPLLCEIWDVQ
- Sequence (Q15788 whole entry partner, the tested form may be a part): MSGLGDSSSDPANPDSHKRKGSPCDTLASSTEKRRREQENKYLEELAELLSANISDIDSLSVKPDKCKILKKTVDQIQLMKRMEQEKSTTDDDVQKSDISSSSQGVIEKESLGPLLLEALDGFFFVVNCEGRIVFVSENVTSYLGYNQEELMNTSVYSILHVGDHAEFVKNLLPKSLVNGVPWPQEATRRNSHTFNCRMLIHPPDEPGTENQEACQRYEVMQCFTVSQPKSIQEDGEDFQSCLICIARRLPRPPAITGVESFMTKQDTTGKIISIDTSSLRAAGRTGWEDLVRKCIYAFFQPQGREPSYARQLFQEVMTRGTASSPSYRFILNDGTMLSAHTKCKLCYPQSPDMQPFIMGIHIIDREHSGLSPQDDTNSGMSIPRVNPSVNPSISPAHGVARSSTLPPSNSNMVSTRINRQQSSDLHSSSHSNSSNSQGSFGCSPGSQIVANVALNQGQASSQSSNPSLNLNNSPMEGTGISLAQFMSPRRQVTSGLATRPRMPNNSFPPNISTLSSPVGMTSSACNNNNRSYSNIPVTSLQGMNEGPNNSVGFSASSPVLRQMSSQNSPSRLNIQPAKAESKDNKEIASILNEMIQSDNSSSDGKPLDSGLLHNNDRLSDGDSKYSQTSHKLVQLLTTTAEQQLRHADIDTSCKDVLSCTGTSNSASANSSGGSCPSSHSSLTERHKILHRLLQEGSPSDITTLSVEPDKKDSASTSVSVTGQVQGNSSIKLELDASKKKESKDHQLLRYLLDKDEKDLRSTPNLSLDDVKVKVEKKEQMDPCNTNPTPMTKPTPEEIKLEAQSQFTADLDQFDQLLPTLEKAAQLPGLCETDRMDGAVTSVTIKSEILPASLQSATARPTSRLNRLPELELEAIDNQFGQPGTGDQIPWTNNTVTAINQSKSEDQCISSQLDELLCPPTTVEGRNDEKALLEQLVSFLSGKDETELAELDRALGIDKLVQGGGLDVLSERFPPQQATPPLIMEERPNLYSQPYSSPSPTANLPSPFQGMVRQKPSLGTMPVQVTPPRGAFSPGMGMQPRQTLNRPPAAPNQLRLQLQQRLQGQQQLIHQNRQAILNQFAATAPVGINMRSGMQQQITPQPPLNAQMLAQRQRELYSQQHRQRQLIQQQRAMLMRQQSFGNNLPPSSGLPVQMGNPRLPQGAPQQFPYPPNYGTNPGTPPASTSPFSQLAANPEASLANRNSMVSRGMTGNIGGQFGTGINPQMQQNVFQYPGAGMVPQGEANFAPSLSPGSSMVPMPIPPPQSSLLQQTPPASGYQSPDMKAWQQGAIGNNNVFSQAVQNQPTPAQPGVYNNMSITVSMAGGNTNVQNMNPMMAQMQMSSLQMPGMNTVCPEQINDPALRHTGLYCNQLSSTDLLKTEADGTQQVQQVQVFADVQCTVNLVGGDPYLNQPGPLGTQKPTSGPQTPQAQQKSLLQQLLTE
- assay-notes: FXR cell free coactivator (SRC-1) recruitment assay, TR-FRET
- condition-info: FXR LBD (amino acids 244-476) with labeled SRC-1 domain, 25° C. for 60 minutes, activity relative to CDCA maximum; read-out: EC50 FXR- Biochemical TR-FRET/μM
reported-endpoint: EC50 (µM)

O=c1[nH]c(-c2csc(N3CCC(OCc4c(-c5c(Cl)cccc5Cl)noc4C4CC4)CC3)c2)no1 0.0286
Cc1cc(N2CCC(OCc3c(-c4c(Cl)cccc4Cl)noc3C3CC3)CC2)ccc1-c1noc(=O)[nH]1 0.0219
O=c1[nH]c(-c2cnc(N3CCC(OCc4c(-c5c(Cl)cccc5Cl)noc4C4CC4)CC3)nc2)no1 0.031
